Taken from patent US20240116985A1.

Kindly supply the reported CHI Log D values for the records listed here.
- Protocol summary: CHI Log D procedure
- Type: physicochemical
- Experimental context: pH 7.4
Respond with the number and no other words.

// field: CHI Log D; key: CC(=O)N1CCC[C@]12CC=CCCCC1(CCCC=CCCCCCC[C@@](C)(C(=O)N[C@@H](Cc3cccc(F)c3)C(=O)N[C@@H](Cc3c[nH]c4ccccc34)C(=O)N[C@@H](CCC(N)=O)C(N)=O)NC(=O)[C@H](CCC(N)=O)NC(=O)[C@H](Cc3ccsc3)NC(=O)[C@H](C)NC(=O)[C@H](C)NC(=O)[C@H](CCC(=O)O)NC(=O)[C@H](CC(=O)O)NC1=O)NC(=O)[C@H](C)NC(=O)[C@H](CC(=O)O)NC2=O (some centres unmarked) [I-451] ; value = 1.88

// field: CHI Log D; key: CC(=O)N1CCC[C@]12CC=CCCCC1(CCCC=CCCCCCC[C@@](C)(C(=O)N[C@@H](Cc3ccccc3)C(=O)N[C@@H](Cc3c[nH]c4ccccc34)C(N)=O)NC(=O)[C@H](C(C)C)NC(=O)[C@H](Cc3ccccc3)NC(=O)[C@H](C)NC(=O)[C@H](C)NC(=O)[C@H](CC(=O)O)NC(=O)[C@H](CC(=O)O)NC1=O)NC(=O)[C@H](C)NC(=O)[C@H](CC(=O)O)NC2=O (some centres unmarked) [I-289] ; value = 2.242

// field: CHI Log D; key: CC(=O)N1CCC[C@]12CC=CCCCC1(CCCC=CCCCCCC[C@@](C)(C(=O)N[C@@H](Cc3ccccc3)C(=O)N[C@@H](Cc3csc4ccccc34)C(=O)N[C@@H](C(N)=O)[C@H](C)O)NC(=O)[C@H](CC(N)=O)NC(=O)[C@H](Cc3ccccc3)NC(=O)[C@H](C)NC(=O)[C@H](C)NC(=O)[C@H](CCC(=O)O)NC(=O)[C@H](CC(=O)O)NC1=O)NC(=O)[C@H](CC(C)C)NC(=O)[C@H](CC(=O)O)NC2=O (some centres unmarked) [I-755] ; value = 2.684

// field: CHI Log D; key: C[C@@H]1NC(=O)[C@H](C)NC(=O)[C@H](CC(=O)O)NC(=O)[C@H](CC(=O)O)NC(=O)C2(CCCC=CCCCCCC[C@@](C)(C(=O)N[C@@H](Cc3ccsc3)C(=O)N[C@@H](Cc3csc4ccccc34)C(=O)N[C@@H](CCC(N)=O)C(N)=O)NC(=O)[C@H](CC(N)=O)NC(=O)[C@H](Cc3ccccc3)NC1=O)CCCC=CC[C@]1(CCCN1C(=O)CN=[N+]=[N-])C(=O)N[C@@H](CC(=O)O)C(=O)N[C@@H](CC(C)(C)C)C(=O)N2 (some centres unmarked) [I-1053] ; value = 2.381

// field: CHI Log D; key: CC(=O)N1CCC[C@]12CC=CCCCC1(CCCC=CCCCCCC[C@@](C)(C(=O)N[C@@H](Cc3ccccc3)C(=O)N[C@@H](Cc3csc4ccccc34)C(=O)N[C@@H](CCC(N)=O)C(N)=O)NC(=O)[C@H](CCC(N)=O)NC(=O)[C@H](Cc3ccccc3)NC(=O)[C@H](C)NC(=O)[C@H](C)NC(=O)[C@H](CCC(=O)O)NC(=O)[C@H](CCO)NC1=O)NC(=O)[C@H](C)NC(=O)[C@H](CC(=O)O)NC2=O (some centres unmarked) [I-497] ; value = 2.6
